# target: T1, Insulin receptor prepared according to Bass et al., 1996: soluble human insulin receptor-immunoglobulin heavy … (human, UniProt P06213 28-956)
# T1 construct: extracellular domain; Eu3+-labelled in TR-FRET; also called IR; sIR-Fc; not shown: immunoglobulin heavy chain constant domains that replace the transmembrane and i
# test: phage ELISA, vs IGF-1R
Positions of bridges follow the written chain, without caps; N, C: chain ends. No end group written: not given here.
# IR/IGF-1R Comparison values compiled below
Write the answer as a number in ratio, unit excluded.

Solved entries (count: 5):
| binder | assay result |
| --- | --- |
| RCGRELYHSTFYDWFDRQVAGRTCPS [H2CA-1-A7-IGFR] | 0.3 |
| HLADGQFHEKFYDWFERQISSRCNDC [H2CA-3-E11-IGFR] | 0.5 |
| QGGSASFYDAIDRLLRMRIGG [20E2A-4-F11-IGFR] | 0.1 |
| DRAFYNGLRDLVGAVYGAWD [R20α-4-20C11-IR] | 0.1 |
| GAPVDQLHEDFYDWFVRQVSQAATG [E2CA-2-B2-IGFR] | 0.3 |

Reported IR/IGF-1R Comparison for GIISQSCPESFYDWFAGQVSDPWWCW [H2CA-4-G9-IGFR] : what is it?
0.1

Reported IR/IGF-1R Comparison for ICTGQGFYQVLCGLLRGTSAR (disulfide 2-12 (inferred)) [20E2B-2-B3-IGFR] : what is it?
0.1
